Provide the recorded pKi for the entries that follow.
Molecular target: UniProt P29466
Sequence (P29466 120-297 limits assumed): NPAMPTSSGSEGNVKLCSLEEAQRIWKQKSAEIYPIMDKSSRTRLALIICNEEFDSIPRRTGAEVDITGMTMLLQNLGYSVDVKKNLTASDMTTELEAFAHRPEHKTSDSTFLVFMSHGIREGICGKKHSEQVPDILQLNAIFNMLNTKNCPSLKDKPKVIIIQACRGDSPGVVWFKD
Sequence (P29466 317-404 limits assumed): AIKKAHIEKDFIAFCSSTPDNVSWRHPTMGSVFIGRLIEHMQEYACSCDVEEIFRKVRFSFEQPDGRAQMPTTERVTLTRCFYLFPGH
Experiment: Enzyme assay with UV-visible substrate (Succinyl-Tyr-Val-Ala-Asp-pNitroanilide)
Assay type: biochemical
Details: Example 6 table
Notebook: values listed as pKi are -log10 of the concentration (mol/L).

pKi for CC(C)[C@H](NC(=O)OCc1ccccc1)C(=O)N[C@@H](C)C(=O)N[C@@H](CC(=O)O)C(=O)c1ncco1 is 5.06

Documented pKi of O=C(O)C[C@H](NC(=O)Cn1c(Cc2ccccc2)ccc(NC(=O)CCc2ccccc2)c1=O)C(=O)COCc1ccccc1Cl : 6.38

Field pKi (entry CC(C)[C@H](NC(=O)OCc1ccccc1)C(=O)N[C@@H](C)C(=O)N[C@@H](CC(=O)O)C(=O)c1ncc(-c2c(Cl)cccc2Cl)o1 ) reads 6.80

Entry CC(=O)N[C@@H](Cc1ccc(O)cc1)C(=O)N[C@H](C(=O)N1C[C@H](Oc2ccccc2)CC1C(=O)N[C@@H](CC(=O)O)C(=O)CSCc1ccccc1Cl)C(C)C (stereo partly drawn) , pKi reported as 7.96

Noted for CC(C)[C@H](NC(=O)OCc1ccccc1)C(=O)N[C@@H](C)C(=O)N[C@@H](CC(=O)O)C(=O)c1ncc(-c2ccccc2)o1 : its pKi reads 6.47

Notebook: O=C(O)C[C@H](NC(=O)[C@@H]1CCCN2C(=O)CC[C@H](NC(=O)CCc3ccccc3)C(=O)N12)C(=O)c1ncc(-c2c(Cl)cccc2Cl)o1 , pKi read as 7.40

Value of measured pKi for the entry O=C[C@H](CC(=O)O)NC(=O)[C@@H]1CCCN2C(=O)C[C@H](NC(=O)CCc3ccccc3)C(=O)N12 [Compound 132a] : 5.30

For record O=C[C@H](CC(=O)O)NC(=O)CN1C(=O)[C@@H](NC(=O)CCc2ccccc2)CNc2ccccc21 [Compound 106a] the listed pKi is 5.64

compound O=C(O)C[C@H](NC(=O)Cn1c(Cc2ccccc2)ccc(NC(=O)CCc2ccccc2)c1=O)C(=O)CSCc1ccccc1Cl [Compound 125a] , pKi observed: 6.41

Value of measured pKi for the entry O=C[C@H](CC(=O)O)NC(=O)[C@@H]1Cc2ccccc2[C@H]2CCC[C@H](NC(=O)CCc3ccccc3)C(=O)N21 : 6.06

The value of pKi measured for the compound CC(C)[C@H](NC(=O)OCc1ccccc1)C(=O)N[C@@H](C)C(=O)NC(CC(=O)O)C(=O)c1ncc[nH]1 (stereo partly drawn) turned out to be 4.89

COc1cccc2nc(C(=O)[C@H](CC(=O)O)NC(=O)[C@H](C)n3cccc(NC(=O)CCc4ccccc4)c3=O)oc12 has a reported pKi of 6.35

Documented pKi of CC(C)[C@H](NC(=O)OCc1ccccc1)C(=O)N[C@@H](C)C(=O)N[C@@H](CC(=O)O)C(=O)c1nccs1 : 5.20

// pKi lookup, compound = O=C(O)C[C@H](NC(=O)Cn1c(Cc2ccccc2)ccc(NC(=O)CCc2ccccc2)c1=O)C(=O)c1ncc(-c2c(Cl)cccc2Cl)o1 , result: 7.40

Documented pKi of O=C[C@H](CC(=O)O)NC(=O)[C@@H]1CCCN2CC[C@H](NC(=O)CCc3ccccc3)C(=O)N12 : 4.30

Looking up CC(C)[C@H](NC(=O)OCc1ccccc1)C(=O)N[C@@H](C)C(=O)N[C@@H](CC(=O)O)C(=O)c1nc(-c2ccccc2)co1 , I see its pKi listed as 6.62

The compound listed as CC(=O)N[C@@H](Cc1ccc(O)cc1)C(=O)N[C@H](C(=O)N[C@@H](C)C(=O)N[C@@H](CC(=O)O)C(=O)c1ncc(-c2c(Cl)cccc2Cl)o1)C(C)C has a reported pKi of 8.55

Recorded result, CC(C)[C@H](NC(=O)OCc1ccccc1)C(=O)N[C@@H](C)C(=O)N[C@@H](CC(=O)O)C(=O)c1cocn1 , pKi: 4.85
